The origin of these recorded values is ChEMBL document CHEMBL2384910.

molecular target: Renin (Macaca fascicularis) (UniProt Q6DLS0); test: Ratio of compound IC50 to aliskiren IC50 for renin in cynomolgus monkey plasma
Sequence (Q6DLS0 whole entry): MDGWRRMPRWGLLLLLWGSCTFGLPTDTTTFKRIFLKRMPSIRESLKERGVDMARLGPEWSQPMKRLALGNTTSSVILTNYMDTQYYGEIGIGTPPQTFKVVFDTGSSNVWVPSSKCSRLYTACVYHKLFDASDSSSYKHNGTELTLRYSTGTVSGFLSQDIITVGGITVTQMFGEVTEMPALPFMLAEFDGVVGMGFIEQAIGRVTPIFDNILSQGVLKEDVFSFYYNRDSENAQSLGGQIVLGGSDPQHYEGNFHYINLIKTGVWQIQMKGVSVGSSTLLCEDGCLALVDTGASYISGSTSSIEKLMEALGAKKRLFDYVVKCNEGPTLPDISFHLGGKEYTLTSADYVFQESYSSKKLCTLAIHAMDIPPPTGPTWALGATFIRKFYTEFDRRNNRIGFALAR
I'd be grateful if you could share measured Ratio IC50 for these entries.
Answers are plain numbers.

Recorded Ratio IC50, per entry:
# query-smiles, quantitative-readout
records = [
    ("CC(C)[C@H](C[C@H](O)[C@@H](N)CN1CC(=O)N(c2ccccc2Cl)CC1(C)C)C(=O)N[C@H]1C2CC3CC1C[C@](O)(C3)C2.O=C(O)/C=C/C(=O)O", 0.9),
    ("CC[C@H](C[C@H](O)[C@@H](N)CN1CC(=O)N(c2ccccc2Cl)CC1(C)C)C(=O)NCC(C)(C)C.O=C(O)/C=C/C(=O)O", 0.3),
    ("CC(C)CNC(=O)[C@@H](C[C@H](O)[C@@H](N)CN1CC(=O)N(c2ccccc2Cl)CC1(C)C)C(C)C.O=C(O)/C=C/C(=O)O", 0.7),
]

// below: Ratio IC50 requested for another compound
Hey, Renin (Macaca fascicularis) (UniProt Q6DLS0) data for CC[C@H](C[C@H](O)[C@@H](N)CN1CC(=O)N(c2ccccc2Cl)CC1(C)C)C(=O)NCC1(CO)CCCC1.O=C(O)/C=C/C(=O)O : Ratio IC50 came out at 0.7
